experimental-target: T1, Human EphA2 (Ecto) (Human, UniProt P29317 24-537)
T1 construct: extracellular domain
T1 sequence (P29317 24-537): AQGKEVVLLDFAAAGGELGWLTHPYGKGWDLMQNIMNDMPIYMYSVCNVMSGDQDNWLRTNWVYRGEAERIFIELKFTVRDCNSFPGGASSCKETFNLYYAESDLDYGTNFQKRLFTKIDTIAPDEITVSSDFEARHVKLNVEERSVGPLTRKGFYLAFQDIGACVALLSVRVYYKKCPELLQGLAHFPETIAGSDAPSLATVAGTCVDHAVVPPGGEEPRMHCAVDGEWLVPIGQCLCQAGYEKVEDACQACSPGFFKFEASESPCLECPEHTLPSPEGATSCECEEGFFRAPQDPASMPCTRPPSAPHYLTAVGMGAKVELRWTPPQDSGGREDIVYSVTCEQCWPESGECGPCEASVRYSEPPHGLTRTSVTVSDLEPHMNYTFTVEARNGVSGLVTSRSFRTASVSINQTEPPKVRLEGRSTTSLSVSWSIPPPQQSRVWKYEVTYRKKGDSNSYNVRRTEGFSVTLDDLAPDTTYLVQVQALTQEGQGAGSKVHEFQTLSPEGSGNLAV
procedure-text: FP competition, tracer Compound 18
Starred links: 1 amine or outer side, 2 acyl side, 3 side chain; linkers in the order of their positions; H or OH if unused. Positions of bridges follow the written chain, without caps; N, C: chain ends. Non-standard residues stand in square brackets, D forms with d. No end group written: not given here. TBMB = c1c(C[*:1])cc(C[*:3])cc1C[*:2]; Sar = CNCC(=O)O
// reported pKi for each item listed
# pKi: negative log10 of molar concentration; output just the value

INSERT INTO assay_data (binder, test_result) VALUES
  ('ADVHCPWGPFWCPVN[dA]PGCA (linker 5-12-19 via TBMB) [Bicycle Compound 156]', 7.83),
  ('[Sar][Sar]ACPWGPFWCPVNRP[dA]C (linker 4-11-18 via TBMB) [Bicycle Compound 112]', 7.05),
  ('ADVHCPWGAFWCPVNRPGCA (linker 5-12-19 via TBMB) [Bicycle Compound 152]', 8.74);

Ask: Report pKi for [Sar][Sar]ACPWGPAWCPVNRPGC (linker 4-11-18 via TBMB) [Bicycle Compound 83] please.
Result: 6.70

Ask: May I ask what pKi has been recorded for [Sar][Sar]ACPWGPFWCPVNRPAC (linker 4-11-18 via TBMB) [Bicycle Compound 111] ?
Result: 6.97

Ask: Which pKi value is on record for ADVHCPWAPFWCPVNRPGCA (linker 5-12-19 via TBMB) [Bicycle Compound 151] ?
Result: 6.41
